# target.or.test.system: Aminopeptidase N (Sus scrofa, UniProt P15145)
# Sequence (P15145 whole entry): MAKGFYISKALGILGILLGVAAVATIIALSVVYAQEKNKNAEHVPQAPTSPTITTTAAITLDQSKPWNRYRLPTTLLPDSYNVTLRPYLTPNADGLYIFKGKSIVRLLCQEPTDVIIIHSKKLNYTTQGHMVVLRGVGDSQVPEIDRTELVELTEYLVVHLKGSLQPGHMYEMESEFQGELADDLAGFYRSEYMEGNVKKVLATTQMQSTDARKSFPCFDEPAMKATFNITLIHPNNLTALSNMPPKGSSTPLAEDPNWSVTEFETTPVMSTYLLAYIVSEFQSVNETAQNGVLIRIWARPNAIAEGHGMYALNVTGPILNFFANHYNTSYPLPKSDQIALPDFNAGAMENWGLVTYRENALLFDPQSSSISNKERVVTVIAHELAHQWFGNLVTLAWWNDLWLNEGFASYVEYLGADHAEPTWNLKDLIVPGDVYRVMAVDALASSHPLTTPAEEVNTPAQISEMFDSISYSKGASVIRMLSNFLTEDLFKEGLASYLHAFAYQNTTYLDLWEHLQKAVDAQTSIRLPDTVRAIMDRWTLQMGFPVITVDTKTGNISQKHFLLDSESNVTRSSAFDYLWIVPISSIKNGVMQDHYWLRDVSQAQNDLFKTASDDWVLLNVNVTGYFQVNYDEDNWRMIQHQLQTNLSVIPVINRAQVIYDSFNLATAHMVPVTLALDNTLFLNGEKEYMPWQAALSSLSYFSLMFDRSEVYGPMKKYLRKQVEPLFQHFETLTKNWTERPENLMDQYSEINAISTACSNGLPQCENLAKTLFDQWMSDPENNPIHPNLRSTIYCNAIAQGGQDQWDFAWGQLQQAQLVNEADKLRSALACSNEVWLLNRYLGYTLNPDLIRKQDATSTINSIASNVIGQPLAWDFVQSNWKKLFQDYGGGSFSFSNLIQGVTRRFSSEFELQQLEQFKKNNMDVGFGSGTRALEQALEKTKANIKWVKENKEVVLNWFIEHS
Listed below are compounds with IC50 for Aminopeptidase N (Sus scrofa, UniProt P15145), each taken from published literature.

INSERT INTO assay_data (compound, endpoint_result) VALUES
  ('COC(=O)[C@H](CCCCNC(=O)OCc1ccccc1)NC(=O)NCc1ccccc1', '> 50 µM');

Entry "CC(C)[C@H](NC(=O)NCCc1ccccc1)C(=O)NO" ; IC50 = > 100 µM

Reported IC50 of "COC(=O)[C@H](CCCCNC(=O)OCc1ccccc1)NC(=O)N[C@@H](CC(C)C)C(=O)OC" : > 50 µM

For this compound ( "Cc1ccc(/C=N/NC(=O)[C@@H]2CC3(CN2S(=O)(=O)c2ccc(C)cc2)SCCS3)cc1" ), measured IC50 is > 1000 µM

Just so you know, measured IC50 for O=C(NO)C(Cc1cccc(Oc2ccccc2)c1)C(=O)NCc1ccccc1 (centres undefined) came out at > 10 µM

Looking up CCOC(=O)C1=C(Nc2ccc(C)cc2)CC(c2ccccc2)N(c2ccc(C)cc2)C1c1ccccn1 (centres undefined) , I found its IC50 recorded as > 100 µM

Item: "CC(C)C[C@H](NC(=O)N[C@@H](CCCCNC(=O)OCc1ccccc1)C(=O)O)C(=O)O" | IC50: > 50 µM

Lab note: "CCCNNC(=O)c1ccc(CNC(=O)[C@H](CC(C)C)NC(=O)[C@H](O)[C@@H](N)Cc2ccccc2)cc1" gave IC50 of > 20 µM

// "N[C@@H](CNC(=O)Cc1ccccc1)Cc1ccccc1" : IC50 value = > 1000 µM

###

We begin with log10 IC50 values for UniProt:P15145, as collected from the published literature.
# target.or.test.system: UniProt:P15145
# Sequence (P15145 whole entry): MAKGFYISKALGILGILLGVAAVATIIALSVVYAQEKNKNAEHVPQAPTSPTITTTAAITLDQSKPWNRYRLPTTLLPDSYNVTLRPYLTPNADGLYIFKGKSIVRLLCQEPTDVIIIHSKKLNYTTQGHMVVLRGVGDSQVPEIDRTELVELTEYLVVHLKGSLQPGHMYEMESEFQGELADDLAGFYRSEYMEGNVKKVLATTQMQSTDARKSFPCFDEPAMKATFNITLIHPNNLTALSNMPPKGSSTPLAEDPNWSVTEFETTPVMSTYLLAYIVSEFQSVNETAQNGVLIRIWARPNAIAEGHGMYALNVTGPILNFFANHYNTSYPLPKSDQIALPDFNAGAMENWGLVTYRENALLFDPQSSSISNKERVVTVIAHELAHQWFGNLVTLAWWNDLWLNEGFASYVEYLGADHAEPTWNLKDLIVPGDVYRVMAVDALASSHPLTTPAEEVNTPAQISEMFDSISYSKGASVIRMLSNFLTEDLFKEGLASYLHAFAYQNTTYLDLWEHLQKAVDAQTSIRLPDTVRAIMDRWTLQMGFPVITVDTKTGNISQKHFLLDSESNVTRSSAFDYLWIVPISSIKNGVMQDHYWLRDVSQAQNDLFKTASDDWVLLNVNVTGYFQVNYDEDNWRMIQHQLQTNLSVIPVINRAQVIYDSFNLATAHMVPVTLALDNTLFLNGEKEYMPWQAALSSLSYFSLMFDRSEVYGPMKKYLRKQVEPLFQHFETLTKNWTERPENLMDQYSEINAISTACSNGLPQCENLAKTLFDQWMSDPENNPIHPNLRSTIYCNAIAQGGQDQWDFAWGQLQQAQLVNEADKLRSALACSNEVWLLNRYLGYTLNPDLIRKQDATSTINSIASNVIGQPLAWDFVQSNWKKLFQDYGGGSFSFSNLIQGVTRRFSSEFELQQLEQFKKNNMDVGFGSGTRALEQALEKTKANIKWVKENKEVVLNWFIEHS
Values below are the log10 of the recorded IC50, with µM as the unit.

Worked cases, log10 IC50 given:
INSERT INTO results (compound, measurement_type, endpoint_result) VALUES
  ('N[C@@H](Cc1ccccc1)C(=O)N[C@H]1CCC(=O)N(CC(=O)Nc2ccccc2F)C1=O', 'log10 IC50', 2.39),
  ('O=C(/C=C/c1ccccc1)N[C@H](CC(=O)Nc1cccc2ccccc12)C(=O)NO', 'log10 IC50', 3.31),
  ('CCCCNC(=O)C[C@@H](NC(=O)/C=C/c1ccccc1)C(=O)NO', 'log10 IC50', 1.05),
  ('O=C(NO)C(Cc1ccccc1)C(=O)NCc1ccccc1F (stereo not drawn)', 'log10 IC50', 0.35),
  ('N[C@H](Cc1ccccc1)C(=O)CC(=O)N[C@@H](Cc1ccccc1)C(=O)O', 'log10 IC50', 0.67),
  ('O=C(/C=C/c1ccccc1)N[C@H](CC(=O)Nc1cccc2ccccc12)C(=O)O', 'log10 IC50', 2.87);

The observed log10 IC50 for "N[C@@H](C(=O)NC1CCCCC1)[C@@H](O)c1ccc([N+](=O)[O-])cc1" when tested with UniProt:P15145 stands at 2.40

Reported log10 IC50 (UniProt:P15145) for entry CC(CNC(=O)C(CC(=O)NO)Cc1ccccc1)C(=O)O (stereo not drawn) is -0.44

Case CC(C)CC(C(=O)NO)C(=O)NCc1ccccc1 (stereo not drawn) , UniProt:P15145, log10 IC50 recorded as -0.23

Lab note: compound "CC(C)C[C@H](NC(=O)NCc1cn(C/C=C/c2ccccc2)nn1)C(=O)NO" tested on UniProt:P15145; recorded log10 IC50 was 0.34

Param item: "CC(C)C[C@H](NC(=O)NCc1ccccc1)C(=O)NO" ; param system: UniProt:P15145; output log10 IC50: -0.07

The measured log10 IC50 that "O=C(NO)/C(=C\c1ccc(F)cc1)C(=O)NCc1ccccc1" showed for UniProt:P15145 is 0.38

Measured log10 IC50 for this entry "COc1ccc(CNC(=O)[C@H](N)[C@@H](O)c2ccc([N+](=O)[O-])cc2)cc1" on UniProt:P15145: 2.16

Record "COc1ccc(/C=C/C(=O)N[C@H](C)C(=O)Nc2nnc(-c3ccc(OC)cc3)s2)cc1" has UniProt:P15145 log10 IC50 equal to 1.89

###

# target.or.test.system: Aminopeptidase N (Sus scrofa, UniProt P15145)
# Sequence (P15145 whole entry): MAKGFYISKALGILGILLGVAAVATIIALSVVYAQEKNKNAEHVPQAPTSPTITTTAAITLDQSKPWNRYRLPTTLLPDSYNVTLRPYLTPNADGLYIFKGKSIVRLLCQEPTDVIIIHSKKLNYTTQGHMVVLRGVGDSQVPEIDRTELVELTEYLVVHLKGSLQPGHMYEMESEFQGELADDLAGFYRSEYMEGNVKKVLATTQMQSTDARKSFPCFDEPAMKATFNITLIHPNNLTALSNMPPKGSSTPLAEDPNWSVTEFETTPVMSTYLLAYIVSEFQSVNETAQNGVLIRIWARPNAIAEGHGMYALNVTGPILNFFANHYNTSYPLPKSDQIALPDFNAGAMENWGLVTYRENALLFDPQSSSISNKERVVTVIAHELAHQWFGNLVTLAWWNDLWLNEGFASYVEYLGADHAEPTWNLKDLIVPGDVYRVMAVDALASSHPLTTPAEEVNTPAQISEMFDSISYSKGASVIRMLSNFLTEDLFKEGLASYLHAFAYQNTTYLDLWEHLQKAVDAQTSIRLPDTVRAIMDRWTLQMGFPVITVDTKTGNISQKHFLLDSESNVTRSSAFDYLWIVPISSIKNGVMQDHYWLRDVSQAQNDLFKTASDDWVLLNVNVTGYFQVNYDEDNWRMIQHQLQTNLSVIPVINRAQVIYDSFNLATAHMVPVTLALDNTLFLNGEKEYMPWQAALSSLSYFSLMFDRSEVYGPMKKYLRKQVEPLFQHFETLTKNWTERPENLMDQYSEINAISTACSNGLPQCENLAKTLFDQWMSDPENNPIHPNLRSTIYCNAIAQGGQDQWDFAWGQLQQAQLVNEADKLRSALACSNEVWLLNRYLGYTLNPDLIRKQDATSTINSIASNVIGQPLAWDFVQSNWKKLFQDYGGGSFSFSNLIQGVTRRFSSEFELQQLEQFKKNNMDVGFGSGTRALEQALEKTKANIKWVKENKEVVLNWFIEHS
// compounds with reported IC50 on Aminopeptidase N (Sus scrofa, UniProt P15145), multi-publication

Below, 2 compounds whose answers are already recorded.
INSERT INTO measurements (entry_smiles, endpoint_result) VALUES
  ('O=C(NO)/C(=C/c1ccccc1)C(=O)NCc1ccc(F)cc1', '> 10 µM'),
  ('N[C@@H](CNC(=O)CCCc1ccccc1)Cc1ccccc1', '> 1000 µM');

With those in mind, consider the next compound.
For record "COC(=O)CNC(=O)N[C@@H](CCCCNC(=O)OCc1ccccc1)C(=O)OC" the listed IC50 is > 50 µM
